biological target: GST; assay: SPOT array; conditions: median of control spots 978
Here the recorded SPOT intensity is given for each entry.
Give the value as a plain number.

DTFLPPPPPPPSNFE : 0

# input Please supply the value of reported SPOT intensity for the item `NSMRPPLLIPAATTK`
# output 1

# input # return recorded SPOT intensity for entry `PPPPPPPPPPLPQSL`
# output 1

# input Entry `RSKRLFPVRPMATAH` needs its SPOT intensity filled in; supply it.
# output 0
